Cited source for all entries: patent US20090215759A1

Reported melting point by item:

Solved entries (count: 5):
CCOC(=O)c1cnc(Nc2ccc(-n3cnc(C)c3)c(F)c2)nc1-c1ccc(C(F)(F)F)cc1 ... 219 to 221 °C
CCOC(=O)c1cnc(Nc2ccc(-n3cnc(C)c3)c(OC)c2)nc1-c1cccc(C#N)c1 ... 195 to 197 °C
CCOC(=O)c1cnc(Nc2ccc(-n3cnc(C)c3)c(OC)c2)nc1-c1ccc(Cl)cc1 [Example 28] ... 216 to 218 °C
Cc1cn(-c2ccc(Nc3nccc(-c4ccc(C(F)(F)F)cc4)n3)cc2F)cn1 ... 196 to 197 °C
Cc1cc(Cc2ccccc2)nc(Nc2ccc(-n3cnc(C)n3)c(F)c2)n1 ... 183 to 185 °C

Consider `COc1cc(Nc2nc(-c3ccc(Cl)cc3)cc(C(F)(F)F)n2)ccc1-n1cnc(C)c1` . Its measured melting point is 202 to 204 °C

Value of melting point reported for the compound `COc1cc(Nc2nccc(-c3ccc(Cl)cc3)n2)ccc1-n1cnc(C)c1` is 202 to 204 °C

The reported value for `Cc1cc(Cc2ccccc2)nc(Nc2ccc(-n3ccnc3CO)cc2)n1` in terms of melting point is 95 to 98 °C

----------
The compounds listed here are annotated with their melting point.

COc1cc(Nc2nc(-c3ccc(-n4cccn4)cc3)cc(C(F)(F)F)n2)ccc1-n1cnc(C)c1 ... 252 to 254 °C
CCOC(=O)C(c1ccccc1)c1nc(Nc2ccc(-n3cnc(C)c3)c(OC)c2)ncc1-c1ccccc1 (centres unmarked) ... 84 to 86 °C
COc1cc(Nc2nccc(-c3cccnc3)n2)ccc1-n1cnc(C)c1 ... 204 to 206 °C
CCOC(=O)c1cnc(Nc2ccc(-n3cnc(C)c3)c(F)c2)nc1-c1ccc(Cl)cc1 ... 232 to 234 °C

Consider the record given below.
So, `Cc1cn(-c2ccc(Nc3nc(C)cc(Cc4ccccc4)n3)cc2F)cn1` ? Its melting point was 155 to 158 °C

----------
The reader will find reported melting point values listed item by item below.

COc1cc(Nc2nc(C)cc(Cc3ccccc3)n2)ccc1-c1cnc(C)s1 [Example 209] ... 138 to 141 °C

// sample `COc1cc(Nc2nc(-c3ccc(-n4ccnc4)cc3)cc(C(F)(F)F)n2)ccc1-n1cnc(C)c1` , its melting point was 248 to 250 °C

Entry under test: `Cc1cn(-c2ccc(Nc3nc(-c4ccc(Cl)cc4)cc(C(F)(F)F)n3)cc2F)cn1` . Its melting point was 248 to 250 °C

Measured melting point, `COc1cc(Nc2nccc(N3CCC(O)CC3)n2)ccc1-n1cnc(C)c1` : 197 to 200 °C
